The origin of these recorded values is the nanobody polyreactivity screen of Harvey et al. (2022).

# experimental_details: yeast display, Sf9 membrane polyspecificity reagent, FACS + sequencing; frameworks hold sequencing errors
readout_label: polyreactivity (PSR sort gate)

Example results:
1) QVQLVESGGGLVQAGGSLRLSCDASGFIFPYYAMGWYRQAPGKERELVARITRGGRTYYADSVKGRFTISRDNAKNTVYLQMNSLKPEDTAVYYCATTGSSYFHSFEYDYWGQGTQVTVSS
low polyreactivity
2) QVQLVESGGGLVQAGGSLRLSCAASGSTFYINAMGWYRQAPGKERELVADITVRGGNTYYADSVKGRFTISRDNAKNTVYLQMNSLKPEDTAVYYCAADDWGFWYDYWGQGTQVTVSS
high polyreactivity
3) QVQLVESGGGLVQAGGSLRLSCAASGYTFRIYAMGWYRLAPGKERELVAGISSRGTSTYYADSVKGRFTISRDNAKNTVYLQMNSLKPEDTAVYYCAAGRYGRLYGYWGQGTQVTVSS
high polyreactivity
4) QVQLVESGGGLVQAGGSLRLSCAASGNILIGNVMGWYRQAPGKERELVAAITSGGDTYYADSVKGRFTISRDNAKNTVYLQMNSLKPEDTAVYYCAADRPGQPKYEYWGQGTQVTVSS
low polyreactivity

Could you now consider this next sequence?
May I ask what polyreactivity (PSR sort gate) has been recorded for QVQLVESGGGLVQAGGSLRLSCAASMGWYRQAPGKERELVAITRTTRTYYADSVKGRFTISRDNAKNTVYLQMNSLKPEDTAVYYCAAPNGPSPYWYNYWGQGTQVTVSS ?
low polyreactivity

###

# experimental_details: yeast display, Sf9 membrane polyspecificity reagent, FACS + sequencing; frameworks hold sequencing errors
readout_label: polyreactivity (PSR sort gate)

Example results:
1. QVQLVESGGGLVQAGGSLRLSSAASGFIFTYYAMGWYRQAPGKERELVAVITRGDSTYYADSVKGRFTISRDNAKNTVYLQMNSLKPEDTAVYYCAARGYFGWSGYSVPSTAYGYWGQGTQVTVSS
high polyreactivity
2. QVQLVESGGGLVQAGGSLRLSCAASGSTFHYYAMGWYRQAPGKERELVAAISSSGVSTYYADSVKGRFTISRDNAKNTVYLQMNSLKPEDTAVYYCNRASVFHYRWYYYWGQGTQVTVSS
high polyreactivity
3. QFQLVESGGGLVQAGGSLRLSCADSGFIFFSNARPWYRHAPGKDRELVAVIDRATSTYYADSVKGRFTISRDNAKYTVYLQMNSLKPEDTAVYYCNADGEEVYDCNYFLSFKGDYWGQGTQVTVSS
low polyreactivity
4. QVQLVESGGGLVQAGGSLRLSCAASGRIFSYNAMGWYRPAPGKEREIVAGITKSGDDTFYADSVKGRFTISRDNAKNTVYLQMNSLKPQDTAVYYCAAASNPRYYTNRMVYWGQGTQVTVSS
low polyreactivity
5. QGQLVESGGGLVQAGGRLRLSCAASGSTFYGNAMGWYRQAPGKERELVAAITWGDASTYYADSVKGRFTISRDNAKNPVYLQMNSLKPEDTAVSYCAVDESYGSSSDMDYWGQGTQVTVSS
low polyreactivity
6. QVQIVESGGGLVQAGGTLRLSCAPSGRTFAPNTMGWYRHAPGKEREFVARINSRGGSTYADSVKGRFTISRDNAKNTVYLQMNSLKPEDTAVYYCARKPYRGVYRYDYWGQGTQVTVSS
high polyreactivity
7. QVQLQESGGGLVQAGGSLRLSCAASGSISHYIFMGWYRQAPGKEREFVAGIGYGGTTNYADSVKGRFTISRDNAKNTVYLQMNSLKPEDTAMYYCAAREATEFYLYYWGQGTQVTVSS
low polyreactivity
8. QFQRVESGGGLVQAGGSLRLSCAASGRILSYKVMGWYRQAPGKEREFVASIRRTGVRTYYADSVKGRFTISRDNAKNTVYLQINSLKPEDTGVYYCNAANFHFWDYYYWGQGTQVTVSS
low polyreactivity
9. QVQLVESGGGLVQAGGRLRLSCAASGITFRSYAMGWYRQAPGKESELVAAIRSGGSTSYADSVKGRFTISRDNAKNTVYLQMNSLKPEDTAVYYCAAGGYVPLPDMTFWKFGYWGQGTQVTVSS
low polyreactivity
10. QVQLVESWGGLVQAGGSLRLSCAASGFTFRAYAMGWYRQAPGKERELVAAISTGGGSTYYADSVKGRFTISRDNAKNTVYLQMKSLKPEDTAVYYCNALPQRRYYYWGQGTQVTVSS
high polyreactivity

May I ask what polyreactivity (PSR sort gate) has been recorded for QVQLVESGGGLVQAGGSLRLSCAASGSTFDGNAMGWYRQAPGKERELVATITRRGGSTNYADSVKGRFTISRDNAKNTVYLQMNSLKPEDTAVYYCATADAHSSAAGEDYWGQGTQVTVSS ?
low polyreactivity

Can you check QVQLVESGGGLVQAGGSLRLSCAASGRTYRTYAMGWYRQAPGKEREFVAAITSSGGSTYYADSVKGRFTISRDNAKNTVDLEMNSLKPEDTAVYSCNAKRRYGPDKYDYWGQGTQVTVSS next?
high polyreactivity

Can you check QVQLVESGGALVQAGGSLRLSCAASGSIFDDNAMGWYRQAPGKERELVAAITGSGGRTYYADSVKGRFTISRDNAQNTVDLQMNSLKPEDTAVYYCAAQGAYNYFNAWYGYEYWGQGTQVTVSS next?
high polyreactivity

Can you check QVQLVESGGGLVQAGGSLRLSCAASGSTFTSYTMGWYRQAPGKERELVARITRGGGSTYYADSVKGRFTISRDNAKNTVYLQMNSLKPEDTAVYYCNAEGYLLPVGNTMDYWGQGTQVTVSS next?
low polyreactivity

Can you check QVQLVESGGGFVQAGGSLRLSCAASGRTFWNYAMGWYRPAPGKERELVAVIRFSDGSTYYADSVKGRFTISRDHAKNTVYLQMNSLKPEDTAVYYCAAKGPRRWGSGFDYWGQGTQVTVSS next?
low polyreactivity

Can you check QVQLVESGGGLVQAGGSLRLSCAASGRTFGGYVMGWYIQAPGKERELVASISSSAGSTYYADSVKGRFTISRDNAKNTVYLQMNSLKTEDTAVYYCAKRSYNPYYRYYRYPYGYWGQGTQVTVSS next?
high polyreactivity

Can you check QVQLVESGGGLVQAGGSLRLSCAASGFIFGGYAMGWYRQAPGKERALVAAITRSGGSTYYADSVKGRFTISRDNAKNTVYLQMNSLKPEDTAVYYCAAERQPYRTSSYNYWGQGTQVTVSS next?
high polyreactivity

Can you check QVQHVESGGGLVQAGGSLRFSCAASGFIFIRNGMGWYRQAPGKERELVAAISARGGSTYYADSVKGRFTISRDNAKNTVYLQMNSLKPEDTALYYCAAYRPRKYDYWGQGTQVTVSS next?
high polyreactivity

Can you check QVQLVESGGGLVQAGGSLRLSCDASGIIFPRYAMGGYRQAPGKERELVAAITIGGRTNYADSVKGRFTISRDNAKNTVYLQMTSLKPEDTAVYYCAAQTYVPYYEYDYWGQGTQVTVSS next?
low polyreactivity

Can you check QVQLVESGGGLVQAGGSLRLSCAASGITFYFNAIGWYRQAPGKDRELVAAIAWPGGSTYYADSVKGRFTISRDNAKHTVFLQMNSLKPEDTAVYYCNGVFRYWYADSWFGAYDYWGQGTQVTVSS next?
high polyreactivity

Can you check QVQLVESGGGLVQAGGSLRLSCAASGRTFSVNAMGWYRQAPGKERELVAAISWDGGSTYYADSVKGRFTISRDNAKNTVYLQMNSLKPVDTAVYYCNKDLYYAYDYWGQGTQVTVSS next?
low polyreactivity
